Tested on: A549
Test: Antiproliferative activity against human A549 cells incubated for 48 hrs in presence of 4-(4-(3-(4-chloro-3-(trifluoromethyl)phenyl)ureido)phenoxy)-N-(prop-2-yn-1-yl)picolinamide by MTT assay
Type: functional, cell-based
Applied conditions: A549, 48 h
Observable: IC50 (nM)
Response body: numeric value in nM, unit text excluded.

[N-]=[N+]=NCCCC(=O)Nc1cccc2c1C(=O)N(C1CCC(=O)NC1=O)C2=O (configuration not stated)	1160

Which value of IC50 has been reported for Cc1ncsc1-c1ccc(CNC(=O)[C@@H]2C[C@@H](O)CN2C(=O)[C@@H](NC(=O)CCCCN=[N+]=[N-])C(C)(C)C)cc1 in the records? 1060

###

Test system: A549
Test: Antiproliferative activity against human A549 cells incubated for 48 hrs in presence of 4-azido-N-(2-(2,6-dioxopiperidin-3-yl)-1,3-dioxoisoindolin-4-yl)butanamide by MTT assay
Assay type: functional, cell-based
Applied conditions: A549, 48 h
Observable: IC50 (nM)
Response body: numeric value in nM, unit text excluded.

Any idea what IC50 came out for C#CCNC(=O)c1cc(Oc2ccc(NC(=O)Nc3ccc(Cl)c(C(F)(F)F)c3)cc2)ccn1 on A549? 1160

The values you see were collected from ChEMBL document CHEMBL5620355.
